# method-summary: Antagonist activity at CXCR2 expressed in CHO cells assessed as inhibition of IL-8-induced chemotaxis
metric-name: log10 IC50 (log10 of the value in µM)

> print(dat)
                  compound.structure.string  numeric.value
1  CCN(Cc1ccc(F)cc1)Nc1c(Nc2cccc(C(=O)N(C)C)c2O)c(=O)c1=O           0.80
2  CCN(Nc1c(Nc2cccc(C(=O)N(C)C)c2O)c(=O)c1=O)c1ccc(F)cc1          -0.08
3  CCN(CC)Nc1c(Nc2cccc(C(=O)N(C)C)c2O)c(=O)c1=O          -1.34
4  CCN(Nc1c(Nc2cccc(C(=O)N(C)C)c2O)c(=O)c1=O)c1ccc(OC)cc1          -1.00
5  CCN(Nc1c(Nc2cccc(C(=O)N(C)C)c2O)c(=O)c1=O)c1ccccn1          -1.12
